Overview of recorded MPL-mutCALR AUC for various binders
Target or test system: T1, human mutCALR on BaF3 cells stably expressing human MPL and human mutCALR (MPL-mutCALR cells) (human)
T1 construct: also called mutant calreticulin
T1 chain: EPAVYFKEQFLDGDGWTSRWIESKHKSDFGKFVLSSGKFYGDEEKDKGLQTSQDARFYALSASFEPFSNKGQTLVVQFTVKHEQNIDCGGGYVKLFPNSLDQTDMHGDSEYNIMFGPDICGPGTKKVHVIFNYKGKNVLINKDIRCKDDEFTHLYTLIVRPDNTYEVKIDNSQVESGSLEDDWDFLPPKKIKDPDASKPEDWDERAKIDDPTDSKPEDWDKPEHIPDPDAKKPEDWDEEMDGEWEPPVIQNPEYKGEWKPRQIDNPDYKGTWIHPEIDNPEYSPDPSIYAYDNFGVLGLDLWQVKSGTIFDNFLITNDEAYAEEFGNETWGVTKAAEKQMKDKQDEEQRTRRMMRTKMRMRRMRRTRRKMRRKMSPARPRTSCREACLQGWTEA
Experiment summary: flow cytometry, BaF3 MPL-mutCALR cells
// return just the number, without any unit appended

Some entries whose results are on file:
Request the reported MPL-mutCALR AUC associated with anti-mutCALR antibody clone 135 (antibody, human IgG1, lambda, N297A, V domains shown) VH: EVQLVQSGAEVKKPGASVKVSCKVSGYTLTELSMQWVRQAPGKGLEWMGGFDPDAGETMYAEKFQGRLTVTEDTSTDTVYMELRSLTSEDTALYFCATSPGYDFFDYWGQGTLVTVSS VL: SYVLTQPPSVSVAPGKTARITCGGDNIGSKSVHWYQQKPGQAPVLVVYDDSDRPSGIPERFSGSNSGNTATLTISRVEAGDEADYYCQVWDSSNDLLIFGGGTKLTVLG
56300

Can you look up the measured MPL-mutCALR AUC of anti-mutCALR antibody clone 137 (antibody, human IgG1, lambda, N297A, V domains shown) VH: EVQLVQSGAEVKKPGASVKVSCKVSGYTLTELSMQWVRQAPGKGLEWMGGFDPDEGETMYAEKFQGRLTVTEDTSTDTVYMELRSLTSEDTALYFCATSPGYDFFDYWGQGTLVTVSS VL: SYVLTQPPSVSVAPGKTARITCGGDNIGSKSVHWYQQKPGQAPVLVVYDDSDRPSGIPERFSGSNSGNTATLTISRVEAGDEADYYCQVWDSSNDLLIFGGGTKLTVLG for me?
69700

Value lookup for MPL-mutCALR AUC; key = anti-mutCALR antibody clone 181 (antibody, human IgG1, lambda, N297A, V domains shown) VH: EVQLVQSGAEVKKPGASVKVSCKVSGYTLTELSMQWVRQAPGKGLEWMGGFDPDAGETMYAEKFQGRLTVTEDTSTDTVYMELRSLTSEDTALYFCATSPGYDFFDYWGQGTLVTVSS VL: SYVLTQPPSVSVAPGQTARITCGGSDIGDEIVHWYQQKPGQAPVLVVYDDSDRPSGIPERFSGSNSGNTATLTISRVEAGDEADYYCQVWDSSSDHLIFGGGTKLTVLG
55600

Turning to the following binder.
I have this binder here, anti-mutCALR antibody clone 24 (antibody, human IgG1, lambda, V domains shown, human IgG1) VH: EVQLVQSGAEVKKPGASVKVSCKVSGYTLTELSMQWVRQAPGKGLEWMGGFDPDDGETMYAEKLQGRLTVTEDTSTDTVYMELRSLTSEDTALYFCATSPGYDFFDYWGQGTLVTVSS VL: SYVLTQPPSVSVAPGKTARITCGGNNIGSKSVHWYQQKPGQAPVLVVYDDSDRPSGIPERFSGSNSGNTATLTINRVEAGDEADYYCQVWDSSNDLLIFGGGTKLTVLG , and I need its recorded MPL-mutCALR AUC.
67800
